System: PA-1
Assay: Primary qHTS to identify gynecologic anti-cancer compounds using libraries of approved drugs and bioactive compounds (AID 1345084); note: nearly all actives have a fitted effect of over 55% in size
Details: Gynecologic cancer cell panel viability, ATPlite luminescence, 48 h; series mostly up to 57.5 µM
Records with an inconclusive call do not appear. The source made the active and inactive calls. Calls come from the whole dose curve; as a rule, active = well fitted cell-killing curve with a large enough effect; inconclusive = small, poorly fitted or top-dose-only effect, or effect the other way; inactive = flat fitted curve, though single readings scatter.
Lab note: assign the record to one of Y = active, N = inactive

These solved cases illustrate the format of a correct answer.
| Compound | Assay Target | Class Name |
| --- | --- | --- |
| C=C1OC2CC(C(=O)O)C=CC2NC1=O (configuration not stated) | PA-1 | N |
| Cc1cn(C2C=CC(CO)O2)c(=O)[nH]c1=O (configuration not stated) | PA-1 | N |

Query: Given CC1=CC(=O)CC2C1(O)CCC(C)C21CC(c2ccoc2)OC1=O (configuration not stated) , state the outcome it received in this test.
Result: N

Query: Record request — test call for CS(=O)(=O)N1CCC(NC(=O)c2[nH]ncc2NC(=O)c2c(Cl)cccc2Cl)CC1
Result: Y

Query: What did the test return for C[C@]1(CO)CCC[C@]2(C)C3=C(CCC12)COC3 (some centres not stated) ?
Result: N

Query: // outcome(item) with item = CC(O)/C=C/C1(O)C2(C)COC1(C)CC(O)C2 (configuration not stated)
Result: N

Query: Kindly provide the recorded test outcome for the following compound: O=S(=O)(NC1CCC(c2cc(F)ccc2F)(S(=O)(=O)c2ccc(Cl)cc2)CC1)C(F)(F)F (configuration not stated)
Result: N

Query: Short answer needed: outcome of this test for OC[C@H]1O[C@@H](OCCc2ccccc2)[C@H](O[C@@H]2OC[C@](O)(CO)[C@H]2O)[C@@H](O)[C@@H]1O ?
Result: N

Query: Record request — test call for CC1C(OC(=O)c2ccccc2)C(O)C2C(C(=O)O)=COC(OC3OC(CO)C(O)C(O)C3O)C12 (configuration not stated)
Result: N

Query: Write down the call the test reported for this compound. Item: CC(C)(C)OC(=O)N1CCC(OCc2nc(-c3ccncc3)no2)CC1
Result: N

Query: For CC1CC(=O)C2=C(CCC3(O)C(O)c4c(O)cccc4C(=O)C23O)C1 (configuration not stated) , which call appears in the assay record?
Result: N

----------
System: HeLa
Test: Primary qHTS to identify gynecologic anti-cancer compounds using libraries of approved drugs and bioactive compounds (AID 1345084); note: nearly all actives have a fitted effect of over 55% in size; note: potency is the fitted concentration of half-maximal effect
Settings: Gynecologic cancer cell panel viability, ATPlite luminescence, 48 h; series mostly up to 57.5 µM
From the text: National Center for Advancing Translational Sciences [NCATS] Assay Overview: Chemotherapeutic drug responses vary from cancer to cancer and from patient to patient. […] ATPlite is a luminescence based assay reliant on the conversion of a luciferase substrate to light in the presence of ATP. As a cytotoxic compound will suppress growth and decrease the number of cells, the concentration of ATP will decrease, and less light signal will be detected in the well. […]
Results filed as inconclusive are left out. Active and inactive are the calls of the source. Calls follow the shape of the dose curve; as a rule, active = well fitted cell-killing curve with a large enough effect; inconclusive = small, poorly fitted or top-dose-only effect, or effect the other way; inactive = flat fitted curve, though single readings scatter.
Parameter Measured: Potency

Sample records with Potency:
| Compound | Assay Target | Observed Result |
| --- | --- | --- |
| Cc1cc(O)c(-c2ccc([C@@H](C)CN(C)C)cc2)c2c1[nH]c(=O)c1sccc12 | HeLa | 447 nM (active) |
| Cc1cc(C(N)=O)ccc1-n1c(CCC(=O)O)ccc1-c1ccc(-n2ccnc2)cc1 | HeLa | inactive |
| O=C(O)c1cn(C2CC2)c2cc(N3C[C@@H]4C[C@H]3CN4)c(F)cc2c1=O | HeLa | inactive |
| Cc1ccc(N)cc1O | HeLa | inactive |
| Cc1ccccc1NC(=O)Nc1ccc(CC(=O)N(C)[C@@H](CC(C)C)C(=O)NCC[C@H](NC(=O)[C@@H]2CCCN2S(=O)(=O)c2cc(Cl)cc(Cl)c2)C(=O)O)cc1 | HeLa | inactive |

Would you kindly look at the next entry?
Query: Which value of Potency has been reported for CC(Oc1cc(-n2cnc3ccc(CN4CCN(C)CC4)cc32)sc1C(N)=O)c1ccccc1C(F)(F)F (stereo unspecified) in the records?
Result: 3550 nM (active)

----------
System: C33A
Assay: Primary qHTS to identify gynecologic anti-cancer compounds using libraries of approved drugs and bioactive compounds (AID 1345084); note: nearly all actives have a fitted effect of over 55% in size; note: potency is the fitted concentration of half-maximal effect
Details: Gynecologic cancer cell panel viability, ATPlite luminescence, 48 h; series mostly up to 57.5 µM
Results filed as inconclusive are left out. Calls of active or inactive are those of the source. Calls follow the shape of the dose curve; as a rule, active = well fitted cell-killing curve with a large enough effect; inconclusive = small, poorly fitted or top-dose-only effect, or effect the other way; inactive = flat fitted curve, though single readings scatter.
# Potency annotations

Look over these answered cases.
| Molecule | Assay Target | Potency |
| --- | --- | --- |
| C=C(CCC1=C(C)[C@H]2[C@H](CC3[C@@H]4CC=C5C[C@@H](O)C[C@@H](O)[C@]5(C)C4[C@H](O)C[C@@]32C)O1)CO[C@@H]1O[C@H](CO)[C@@H](O)[C@H](O)[C@H]1O (stereo not given in full) | C33A | 1.26 µM (active) |
| CC(Oc1cc(-n2cnc3ccc(CN4CCN(C)CC4)cc32)sc1C(N)=O)c1ccccc1C(F)(F)F (stereo not given) | C33A | 8.91 µM (active) |
| CCCCNc1ncc2c(-c3ccc(F)cc3)nn(CC3CCC(N)CC3)c2n1 (stereo not given) | C33A | 11.2 µM (active) |
| COc1cc2nc(N3CCC(N4CCCCC4)CC3)nc(NC3CCCCCC3)c2cc1OC | C33A | 25.1 µM (active) |

Next item in the queue.
Query: Entry COc1cc2c(NC3CCN(CC4CCCCC4)CC3)nc(N3CCCN(C(C)C)CC3)nc2cc1OCCCN1CCCCC1 has what Potency?
Result: 14.1 µM (active)

----------
The reader will find reported max response values listed item by item below.
Test system: KB-3-1
Experiment: Cytotoxic Profiling of Annotated Libraries Using Quantitative High-Throughput Screening (AID 1296008); note: % is set by controls: 0 for no effect and ±100 for the full control effect; nearly all actives have a fitted effect of over 60% in size
Details: Five cell lines viability, CellTiter-Glo ATP luminescence, 48-72 h; hits give low values
Inconclusive results are not listed.
Field: numeric (%). Do not append units.

For orientation, consider the following solved cases.
| Compound | Unit Annotation | max response |
| --- | --- | --- |
| CC(=O)N1CCc2ccc(O)c(OC3OC(COC4OCC(O)(CO)C4O)C(O)C(O)C3O)c2C1Cc1ccc(O)cc1 (stereo unspecified) | % | 3.16 |
| Cc1cc(C)c2c(N)c(C(=O)NCc3ccc(Cl)cc3)sc2n1 | % | -4.61 |
| CC1=CC(=O)C2C(C)(C)CCC[C@]2(C)[C@H]1CO (stereo partly specified) | % | 2.57 |
| CC1=CC(=O)CC(C)(C)C1CCC(C)O[C@@H]1O[C@H](CO[C@@H]2OC[C@@H](O)[C@H](O)[C@H]2O)[C@@H](O)[C@H](O)[C@H]1O (stereo partly specified) | % | 1.12 |
| Cc1cc(O)cc(O[C@@H]2O[C@H](CO)[C@@H](O)[C@H](O)[C@H]2O)c1 | % | 4.47 |
| C=C1CCC2C(C(C)(C)O)CCC2(C)CC(O)C(=C)CCC1O (stereo unspecified) | % | 2.13 |
| O=[N+]([O-])c1cn2c(n1)OCC(OCc1ccc(OC(F)(F)F)cc1)C2 (stereo unspecified) | % | -10.4 |
| CCC(CC)C(=O)Nc1sc2c(c1C#N)CCC(C(C)(C)CC)C2 (stereo unspecified) | % | -9.22 |

Could you now look at the following compound, please?
Query: What does the data say about its max response? Entry: CC1(C)CC[C@]2(C(=O)O[C@@H]3O[C@H](CO)[C@@H](O)[C@H](O)[C@H]3O)CC[C@]3(C)C(=CCC4[C@@]5(C)CC[C@H](O[C@@H]6O[C@H](C(=O)O)[C@@H](O)[C@H](O[C@@H]7O[C@H](CO)[C@H](O)[C@H](O)[C@H]7O)[C@H]6O)C(C)(C)C5CC[C@]43C)C2C1 (stereo partly specified)
Result: 3.29

----------
System: CRL-7250
Test: Cytotoxic Profiling of Annotated Libraries Using Quantitative High-Throughput Screening (AID 1296008); note: % is set by controls: 0 for no effect and ±100 for the full control effect; nearly all actives have a fitted effect of over 60% in size
Conditions: Five cell lines viability, CellTiter-Glo ATP luminescence, 48-72 h; hits give low values
Experimental: Cell-based phenotypic screening is a commonly used approach to discover biological pathways, novel drug targets, chemical probes and high-quality hit-to-lead molecules. […] A pintool (Kalypsys) was used to transfer 23 nL of compound solution to the 1536-well assay plates. […] Plates were left at room temperature for 10 min before imaging the ATP-coupled luminescence using a ViewLux microplate imager (PerkinElmer, Waltham, MA).
Records with an inconclusive call do not appear.
# max response listing for each entry below
Kindly answer with a numeric value in %, unit omitted.

Some solved entries appear below for comparison.
| Molecule | Parameter Measured | Observed Result |
| --- | --- | --- |
| CC(=O)O[C@H]1CC[C@H](C)[C@@]2(C)[C@H](OC(C)=O)c3c(C)coc3C(=O)[C@H]12 | max response | -18.1 |
| C[C@@H]1CC[C@]2(C(=O)O)CC[C@]3(C)C(=CCC4[C@@]5(C)CC[C@H](O)C(C)(C)C5C(O)C[C@]43C)[C@@H]2[C@]1(C)O (some centres undefined) | max response | -5.69 |

Query: Request the reported max response associated with NC(=O)c1cccc(-c2cc(OC(=O)NC3CCCCC3)ccc2O)c1
Result: 2.23

Query: Reported max response for CC(=O)CC1CCC(C(C)C(=O)OCC(O)CO)O1 (centres undefined) : what is it?
Result: 2.08

Reference source for all entries: PubChem BioAssay (NCATS)
